Ref: patent US20240358713A1

TEST SUMMARY: MTT cytotoxic / anti-proliferative assay, Caco-2
Type: cell-based, human
ASSAY SETUP: human; calculated SI for cancer cell Caco-2; SI higher than 1.0 considered selective to cancer cell; read-out: Selectivity index (SI) Caco-2

# QUERY SMILES, selectivity ratio at 24 h
records = [
    ("c1ccc2c3c(ccc2c1)OCCn1c-3nc2ccccc21", 0.48),
]
